# Tested on: MOLT-4 leukemia
# protocolDetails: NCI-60 one-dose screen, 48 h
# testConditions: 10 µM unless noted
About 83,000 compounds went through this panel and 20% of them were active in at least one assay; those are over-represented in the sample as a whole. The source made the active and inactive calls. The calls were made as follows: active = growth percent below 10; inactive = the rest.
Possible outcomes: 1 = active, 0 = inactive

>  <molecule>
Clc1ccc(/C=N\N=C\c2ccc(Cl)c(Cl)c2)cc1Cl

>  <discreteLabel>
0

$$$$
>  <molecule>
O=C(CN1CCCCC1)Nc1nc(-c2cc3ccccc3oc2=O)cs1

>  <discreteLabel>
0

$$$$
>  <molecule>
COCCOc1cc2ncnc(N3CCN(c4cc(S(C)(=O)=O)c(C)cc4Cl)CC3)c2cc1OCCOC

>  <discreteLabel>
0

$$$$
>  <molecule>
c1ccc2cc(C[n+]3ccn(CCCCCCCCCCn4cc[n+](Cc5ccc6ccccc6c5)c4)c3)ccc2c1

>  <discreteLabel>
1

$$$$
>  <molecule>
C#CCNC(=O)[C@H](CC)[C@H]1CC[C@H](C)[C@H]([C@@H](C)[C@H](O)[C@H](C)C(=O)[C@H](CC)C2O[C@]3(C=CC(=O)[C@]4(CC[C@@](C)([C@H]5CC[C@](O)(CC)[C@H](C)O5)O4)O3)[C@H](C)C[C@@H]2C)O1 (stereo partly drawn)

>  <discreteLabel>
0

$$$$
>  <molecule>
COC1=CC(c2ccc[nH]2)=N/C1=C\c1[nH]c(C)c(CC(=O)OCc2ccccc2)c1CCC(=O)OCc1ccccc1

>  <discreteLabel>
1

$$$$
>  <molecule>
COc1ccc(C(=O)/C=C/c2c(C(F)(F)F)nc3ccccn23)cc1OC

>  <discreteLabel>
1

$$$$
>  <molecule>
Cc1ccc(NC(=O)c2sc3nc(C)c(Br)c(C)c3c2N)cc1

>  <discreteLabel>
0

$$$$

====

# Test system: OVCAR-4 ovarian
# protocolDetails: NCI-60 one-dose screen, 48 h
# testConditions: 10 µM unless noted
The panel holds about 83,000 compounds, 20% with a hit somewhere; the sample as a whole holds those more often. The source made the active and inactive calls. How the source made its calls: active means growth percent below 10; inactive means the rest.
Possible outcomes: T = active, F = inactive

>  <substanceSmiles>
O=C(Nc1nc2cc(C(=O)N3CCN(C(c4ccccc4)c4ccccc4)CC3)ccc2o1)c1ccc(NC2CCCCC2)c([N+](=O)[O-])c1

>  <discreteLabel>
F

$$$$
>  <substanceSmiles>
CCSC(SCC)c1ccc(Cl)cc1

>  <discreteLabel>
F

$$$$
>  <substanceSmiles>
Nc1nc(N)c(-c2ccc(Cl)c(Cl)c2)c(CBr)n1

>  <discreteLabel>
F

$$$$
>  <substanceSmiles>
CC(C)(Sc1cc(C(C)(C)C)c(OC(=O)CCCC(=O)O)c(C(C)(C)C)c1)Sc1cc(C(C)(C)C)c(OC(=O)CCCC(=O)O)c(C(C)(C)C)c1

>  <discreteLabel>
F

$$$$
>  <substanceSmiles>
O=C(CSc1nc2sc3c(c2c(=O)n1-c1ccccc1)CCCCC3)N/N=C/c1cccc([N+](=O)[O-])c1

>  <discreteLabel>
T

$$$$
>  <substanceSmiles>
CCOC(=O)c1ccc2c(c1)nc(-c1ccccc1)n2C1CCCCC1

>  <discreteLabel>
F

$$$$
>  <substanceSmiles>
O=C(Nc1cccc(-c2ccc(Cl)c(C(F)(F)F)c2)c1)C1CCN(Cc2cccc3cccnc23)CC1

>  <discreteLabel>
F

$$$$
>  <substanceSmiles>
CC(=O)Oc1ccc(N2C(=O)C(Cl)=C(Nc3cccc(C(F)(F)F)c3)C2=O)cc1

>  <discreteLabel>
F

$$$$
>  <substanceSmiles>
COc1ccc(-c2ccc(-c3ccc(C(=N)N)cc3)s2)cc1Cl

>  <discreteLabel>
T

$$$$
